Hey, just so you know, these numbers are from patent US20130109682A1.

Would you kindly list pIC50 for each of these compounds?
- Test Target: PIM1 (Homo sapiens, UniProt P11309)
- Sequence (P11309 whole entry): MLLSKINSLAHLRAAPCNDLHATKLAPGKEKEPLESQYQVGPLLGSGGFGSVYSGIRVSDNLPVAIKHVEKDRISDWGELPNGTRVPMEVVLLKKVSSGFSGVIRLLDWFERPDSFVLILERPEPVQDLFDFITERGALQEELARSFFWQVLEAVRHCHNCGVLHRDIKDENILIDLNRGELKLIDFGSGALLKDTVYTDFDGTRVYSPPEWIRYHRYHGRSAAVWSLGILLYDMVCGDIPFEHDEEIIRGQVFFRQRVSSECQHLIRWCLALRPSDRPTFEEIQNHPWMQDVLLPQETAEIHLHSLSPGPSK
- Procedure Details: KinaseGlo Pim1 ATP depletion assay
- Format: biochemical
Give bare numbers, as −log10 of the molar value.

Recorded results for 2 compounds are shown here.
INSERT INTO measurements (compound, endpoint_value) VALUES
  ('O=C(Nc1cnccc1[C@H]1C[C@@H](O)[C@@]2(O)CCC[C@H]2O1)c1ccc(F)c(-c2c(F)cccc2F)n1 [Example 204]', 9.30),
  ('CC[C@]1(O)[C@H](O)C[C@H](c2ccncc2NC(=O)c2nc(-c3c(F)cccc3F)ncc2N)O[C@@H]1C [Example 143]', 8.89);

Hey, can you go through the list below and give me pIC50 for every item?
1. Nc1cnc(-c2c(F)cccc2F)nc1C(=O)Nc1cnccc1[C@H]1C[C@@H](O)[C@H](O)[C@@H](CCl)O1 [Example 17]
2. CC1C(c2ccncc2NC(=O)c2ccc(F)c(-c3c(F)cccc3F)n2)OC(C)[C@@H](O)C1O (stereo in doubt) [Example 64]
3. O=C(Nc1cnccc1[C@H]1C[C@@H](O)[C@@]2(O)CCCC[C@H]2O1)c1c[nH]cc(-c2ccccc2)c1=O [Example 178]
4. C=C[C@H]1OC(c2ccncc2NC(=O)c2nc(-c3c(F)cccc3F)ncc2N)=C[C@@H](O)[C@@H]1O [Example 144]
5. Nc1ncc(-c2ccccc2)nc1C(=O)Nc1cnccc1[C@H]1C[C@@H](O)[C@@]2(O)CCCC[C@H]2O1 [Example 173]

stdout:
[8.70, 9.00, 6.81, 8.28, 8.66]

----------
Would you kindly list pIC50 for each of these compounds?
- Test Target: PIM2 (Homo sapiens, UniProt Q9P1W9)
- Sequence (Q9P1W9 whole entry): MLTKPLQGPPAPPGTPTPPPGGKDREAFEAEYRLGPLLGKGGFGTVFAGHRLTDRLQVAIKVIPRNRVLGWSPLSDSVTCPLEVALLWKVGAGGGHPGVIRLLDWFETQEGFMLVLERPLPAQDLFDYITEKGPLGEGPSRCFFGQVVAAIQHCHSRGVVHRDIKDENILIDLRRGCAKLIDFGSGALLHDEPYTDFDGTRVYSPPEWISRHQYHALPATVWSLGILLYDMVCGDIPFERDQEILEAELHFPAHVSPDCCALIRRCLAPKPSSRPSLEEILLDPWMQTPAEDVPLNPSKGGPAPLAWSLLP
- Procedure Details: KinaseGlo Pim2 ATP depletion assay
- Type: biochemical
Answers are plain numbers, as −log10 of the molar value.

Recorded results for 3 compounds are shown here.
INSERT INTO assay_data (compound, test_target, endpoint_value) VALUES
  ('Nc1cc(F)c(-c2ccccc2F)nc1C(=O)Nc1cnccc1C1=C[C@@H](O)[C@H](O)[C@@H](CCl)O1 [Example 29]', 'PIM2 (Homo sapiens, UniProt Q9P1W9)', 9.00),
  ('Nc1cnc(-c2c(F)cccc2F)nc1C(=O)Nc1cnccc1C1=C[C@@H](O)[C@H](O)[C@@H](CCl)O1 [Example 14]', 'PIM2 (Homo sapiens, UniProt Q9P1W9)', 8.70),
  ('Nc1cc(F)c(-c2ccccc2F)nc1C(=O)Nc1cnccc1[C@H]1C[C@@H](O)[C@H](O)[C@@H](CCl)O1 [Example 38]', 'PIM2 (Homo sapiens, UniProt Q9P1W9)', 8.52);

# input for lookup
stdin: Request - read-out pIC50 | tested on PIM2 (Homo sapiens, UniProt Q9P1W9) | compound CC[C@H]1O[C@@H](c2ccncc2NC(=O)c2ccc(F)c(-c3c(F)cccc3F)n2)C[C@@H](O)[C@]1(C)O [Example 164]
stdout: 8.72

----------
- Test Target: PIM2 (Homo sapiens)
- Procedure Details: Pim 2 AlphaScreen assay (high ATP)
- Type: biochemical
- Run Conditions: read-out: Pim2 IC50
Note to self: use fulfilled only for IC50 readings below 20 nM; a reading exactly at 20 nM still gets not fulfilled.

Answered cases to consult:
INSERT INTO results (compound, test_target, assigned_label) VALUES
  ('CC[C@]1(O)[C@H](C)O[C@H](c2ccncc2NC(=O)c2nc(-c3ccccc3)cnc2N)C[C@@H]1N', 'PIM2 (Homo sapiens)', 'not fulfilled'),
  ('CC(=O)Nc1cc(F)c(-c2nc(C(=O)Nc3cnccc3[C@H]3C[C@@H](N)[C@](C)(O)[C@@H](C)O3)ccc2F)c(F)c1', 'PIM2 (Homo sapiens)', 'fulfilled'),
  ('Nc1ncc(-c2ccccc2)nc1C(=O)Nc1cnccc1[C@H]1C[C@@H](O)[C@H](O)[C@@H](CO)O1', 'PIM2 (Homo sapiens)', 'not fulfilled'),
  ('Nc1ncc(-c2ccccc2)nc1C(=O)Nc1cnccc1[C@@H]1C[C@H](N)[C@]2(O)CCC[C@@H]2O1', 'PIM2 (Homo sapiens)', 'not fulfilled'),
  ('CC(C)C1OC(c2ccncc2NC(=O)c2ccc(F)c(-c3c(F)cccc3F)n2)C[C@H](N)[C@H]1O (stereo in doubt)', 'PIM2 (Homo sapiens)', 'not fulfilled'),
  ('C[C@@]1(O)[C@@H](N)C[C@@H](c2ccncc2NC(=O)c2ccc(F)c(-c3c(F)cccc3F)n2)O[C@H]1C1CC1', 'PIM2 (Homo sapiens)', 'not fulfilled');

stdin: Given CC1(C)C[C@@H](N)C[C@H](c2ccncc2NC(=O)c2ccc(F)c(-c3c(F)cccc3F)n2)O1 , is recorded IC50 strictly lower than 20 nM?
stdout: not fulfilled

stdin: What do you have for CC(C)[C@H]1OC(c2ccncc2NC(=O)c2ccc(F)c(-c3c(F)ccc(C(=O)N(C)C)c3F)n2)C[C@@H](N)[C@@H]1O (stereo in doubt) ?
stdout: fulfilled

----------
Would you kindly list IC50 for each of these compounds?
- Test Target: PIM1 (Homo sapiens, UniProt P11309)
- Procedure Details: KinaseGlo Pim1 ATP depletion assay
- Type: biochemical
- Experimental: KinaseGlo Pim1 ATP Depletion Assay The activity of PIM1 is measured using a luciferase-luciferin based ATP detection reagent to quantify ATP depletion resulting from kinase-catalyzed phosphoryl transfer to a peptide substrate. Compounds to be tested are dissolved in 100% DMSO and directly distributed into white 384-well plates at 0.5 μA per well. […] The stopped reaction is incubated for 10 minutes and the remaining ATP detected via luminescence on the Victor2 (Perkin Elmer). […]
Give bare numbers, in nM.

INSERT INTO results (compound, measured_metric, endpoint_value) VALUES
  ('C[C@@H]1C[C@H](N)C[C@H](c2ccncc2NC(=O)c2ccc(F)c(-c3c(F)cccc3F)n2)O1', 'IC50', 2),
  ('O=C(Nc1cnccc1[C@@H]1OCC[C@H](CO)O1)c1ccc(F)c(-c2c(F)cccc2F)n1', 'IC50', 10),
  ('O=C(Nc1cnccc1[C@H]1C[C@@H](O)[C@@]2(O)CCC[C@H]2O1)c1cccn(-c2ccccc2)c1=O', 'IC50', 2210);

Hey, can you go through the list below and give me IC50 for every item?
1. O=C(Nc1cnccc1[C@H]1C[C@@H](O)CC2(CC2)O1)c1ccc(F)c(-c2c(F)cccc2F)n1
2. C[C@@H]1C[C@H](O)C[C@H](c2ccncc2NC(=O)c2csc(-c3c(F)cccc3F)n2)O1 (stereo in doubt)
3. CC[C@]1(O)[C@H](O)C[C@H](c2ccncc2NC(=O)c2c[nH]cc(-c3ccccc3)c2=O)O[C@@H]1C
4. Nc1ncc(-c2ccccc2)nc1C(=O)Nc1cnccc1[C@@H]1C[C@H](O)[C@]2(O)CCC[C@@H]2O1

stdout:
[6, 10, 259, 159]

----------
- Test Target: PIM2 (Homo sapiens)
- Procedure Details: KinaseGlo Pim2 ATP depletion assay
- Format: biochemical
Measured Metric: IC50

Recorded results for 3 compounds are shown here.
INSERT INTO assay_data (compound, measured_metric, endpoint_value) VALUES
  ('Nc1ccc(-c2c(F)cccc2F)nc1C(=O)Nc1cnccc1[C@H]1C[C@@H](N)[C@@]2(O)CCC[C@H]2O1', 'IC50', '0.0026 µM'),
  ('CC(C)NC(=O)c1ccc(F)c(-c2cccc(C(=O)Nc3cnccc3[C@H]3C[C@@H](O)[C@](C)(O)[C@@H](C)O3)n2)c1', 'IC50', '0.078 µM'),
  ('CC1C(c2ccncc2NC(=O)c2ccc(F)c(-c3c(F)cccc3F)n2)OC(C)[C@@H](O)C1O (stereo in doubt) [Example 67]', 'IC50', '0.3 µM');

# input for lookup
stdin: Please look up its IC50: Nc1cc(F)c(-c2ccccc2F)nc1C(=O)Nc1cnccc1C1=CC(=O)[C@H](O)[C@@H](CCl)O1
stdout: 0.0842 µM

----------
- Test Target: PIM1 (Homo sapiens)
- Procedure Details: KinaseGlo Pim1 ATP depletion assay
- Format: biochemical
Measured Metric: pIC50
Numbers only, as −log10 of the molar value.

Recorded results for 5 compounds are shown here.
INSERT INTO measurements (compound, endpoint_value) VALUES
  ('C[C@@H]1O[C@H](c2ccncc2NC(=O)c2ccc(F)c(-c3c(F)cccc3F)n2)C[C@H](O)[C@H]1O', 8.70),
  ('N#C[C@H]1O[C@@H](c2ccncc2NC(=O)c2ccc(F)c(-c3c(F)cccc3F)n2)C[C@@H](O)[C@@H]1O', 9.00),
  ('Nc1cnc(-c2c(F)cccc2F)nc1C(=O)Nc1cnccc1[C@H]1C[C@@H](N)[C@@]2(O)CCC[C@H]2O1', 8.41),
  ('C[C@H]1O[C@@H](c2ccncc2NC(=O)c2csc(-c3c(F)cccc3F)n2)C[C@@H](O)[C@]1(C)O (stereo in doubt)', 7.17),
  ('CC[C@H]1O[C@@H](c2ccncc2NC(=O)c2ccc(F)c(-c3c(F)cccc3F)n2)C[C@@H](O)[C@H]1C#N', 8.11);

Hey, can you go through the list below and give me pIC50 for every item?
1. O=C(Nc1cnccc1[C@H]1C[C@H](Cl)[C@H](O)[C@@H](CCl)O1)c1ccc(F)c(-c2c(F)cccc2F)n1
2. C=C1[C@@H](O)C[C@@H](c2ccncc2NC(=O)c2ccc(F)c(-c3c(F)cccc3F)n2)OC12CC2
3. CC[C@]1(O)[C@H](O)C[C@H](c2ccncc2NC(=O)c2ccc(F)c(-c3c(F)cccc3F)n2)O[C@@H]1C (stereo in doubt)
4. O=C(Nc1cnccc1[C@H]1OCC[C@@H](CO)O1)c1csc(-c2c(F)cccc2F)n1
5. O=C(Nc1cnccc1[C@H]1C[C@@H](O)CCO1)c1ccc(F)c(-c2c(F)cccc2F)n1
6. N#C[C@H]1OC(c2ccncc2NC(=O)c2ccc(F)c(-c3c(F)cccc3F)n2)=C[C@@H](O)[C@@H]1O
7. O=C(Nc1cnccc1[C@H]1C[C@@H](O)[C@H](O)[C@@H](CO)O1)c1ccc(F)c(-c2c(F)cccc2F)n1
8. C[C@@H]1O[C@H](c2ccncc2NC(=O)c2ccc(F)c(-c3c(F)cccc3F)n2)[C@@H](F)[C@H](O)[C@@]1(C)O (stereo in doubt)

stdout:
8.70
8.10
7.30
7.55
8.70
9.00
7.72
9.00

Hey, can you go through the list below and give me pIC50 for every item?
1. CC1(C)O[C@H](c2ccncc2NC(=O)c2ccc(F)c(-c3c(F)cccc3F)n2)C[C@@H](O)[C@H]1O
2. C[C@@H]1O[C@H](c2ccncc2NC(=O)c2ccc(F)c(-c3c(F)cccc3F)n2)C[C@H](O)[C@]1(O)CO
3. O=C(Nc1cnccc1[C@@H]1C[C@H](O)[C@@H](O)[C@H](C2CC2)O1)c1ccc(F)c(-c2c(F)cccc2F)n1
4. Nc1cc(F)c(-c2ccccc2F)nc1C(=O)Nc1cnccc1[C@H]1C[C@@H](O)[C@H](O)[C@@H](CCl)O1
5. N#C[C@H]1OC(c2ccncc2NC(=O)c2nc(-c3c(F)cccc3F)c(F)cc2N)=C[C@@H](O)[C@@H]1O
6. Nc1ccc(-c2c(F)cccc2F)nc1C(=O)Nc1cnccc1[C@H]1C[C@@H](N)[C@@]2(O)CCC[C@H]2O1

stdout:
1: 8.52; 2: 9.00; 3: 8.49; 4: 9.00; 5: 8.96; 6: 9.22

Hey, can you go through the list below and give me pIC50 for every item?
1. Nc1cc(F)c(-c2c(F)cccc2F)nc1C(=O)Nc1cnccc1C1=C[C@@H](O)[C@H](O)[C@@H](CCl)O1
2. CC[C@H]1O[C@@H](c2ccncc2NC(=O)c2nc(-c3nccs3)ccc2N)C[C@@H](O)[C@@H]1O [Example 140]
3. CC[C@H]1O[C@@H](c2ccncc2NC(=O)c2ccc(F)c(-c3c(F)cccc3F)n2)C[C@@H](O)[C@]1(C)O
4. O=C(Nc1cnccc1[C@@H]1C[C@H](O)CCO1)c1csc(-c2c(F)cccc2F)n1
5. C[C@@H]1O[C@H](c2ccncc2NC(=O)c2ccc(F)c(-c3c(F)cccc3F)n2)C[C@@H](O)[C@H]1O
6. O=C(Nc1cnccc1[C@H]1CCCCO1)c1ccc(F)c(-c2c(F)cccc2F)n1
7. O=C(Nc1cnccc1[C@@H]1C[C@H](O)CCO1)c1ccc(F)c(-c2c(F)cccc2F)n1
8. CC[C@H]1O[C@@H](c2ccncc2NC(=O)c2nc(-c3c(F)cccc3F)c(F)cc2N)C[C@@H](O)[C@@H]1O

stdout:
1. 9.00
2. 7.74
3. 9.10
4. 7.92
5. 8.70
6. 8.00
7. 8.22
8. 9.00

stdin: Please look up its pIC50: C=C[C@H]1OC(c2ccncc2NC(=O)c2nc(-c3ccccc3)ncc2N)=C[C@@H](O)[C@@H]1O
stdout: 7.70
